Molecular target: ROCK2 (Homo sapiens, UniProt O75116)
Sequence (O75116 whole entry, species assumed): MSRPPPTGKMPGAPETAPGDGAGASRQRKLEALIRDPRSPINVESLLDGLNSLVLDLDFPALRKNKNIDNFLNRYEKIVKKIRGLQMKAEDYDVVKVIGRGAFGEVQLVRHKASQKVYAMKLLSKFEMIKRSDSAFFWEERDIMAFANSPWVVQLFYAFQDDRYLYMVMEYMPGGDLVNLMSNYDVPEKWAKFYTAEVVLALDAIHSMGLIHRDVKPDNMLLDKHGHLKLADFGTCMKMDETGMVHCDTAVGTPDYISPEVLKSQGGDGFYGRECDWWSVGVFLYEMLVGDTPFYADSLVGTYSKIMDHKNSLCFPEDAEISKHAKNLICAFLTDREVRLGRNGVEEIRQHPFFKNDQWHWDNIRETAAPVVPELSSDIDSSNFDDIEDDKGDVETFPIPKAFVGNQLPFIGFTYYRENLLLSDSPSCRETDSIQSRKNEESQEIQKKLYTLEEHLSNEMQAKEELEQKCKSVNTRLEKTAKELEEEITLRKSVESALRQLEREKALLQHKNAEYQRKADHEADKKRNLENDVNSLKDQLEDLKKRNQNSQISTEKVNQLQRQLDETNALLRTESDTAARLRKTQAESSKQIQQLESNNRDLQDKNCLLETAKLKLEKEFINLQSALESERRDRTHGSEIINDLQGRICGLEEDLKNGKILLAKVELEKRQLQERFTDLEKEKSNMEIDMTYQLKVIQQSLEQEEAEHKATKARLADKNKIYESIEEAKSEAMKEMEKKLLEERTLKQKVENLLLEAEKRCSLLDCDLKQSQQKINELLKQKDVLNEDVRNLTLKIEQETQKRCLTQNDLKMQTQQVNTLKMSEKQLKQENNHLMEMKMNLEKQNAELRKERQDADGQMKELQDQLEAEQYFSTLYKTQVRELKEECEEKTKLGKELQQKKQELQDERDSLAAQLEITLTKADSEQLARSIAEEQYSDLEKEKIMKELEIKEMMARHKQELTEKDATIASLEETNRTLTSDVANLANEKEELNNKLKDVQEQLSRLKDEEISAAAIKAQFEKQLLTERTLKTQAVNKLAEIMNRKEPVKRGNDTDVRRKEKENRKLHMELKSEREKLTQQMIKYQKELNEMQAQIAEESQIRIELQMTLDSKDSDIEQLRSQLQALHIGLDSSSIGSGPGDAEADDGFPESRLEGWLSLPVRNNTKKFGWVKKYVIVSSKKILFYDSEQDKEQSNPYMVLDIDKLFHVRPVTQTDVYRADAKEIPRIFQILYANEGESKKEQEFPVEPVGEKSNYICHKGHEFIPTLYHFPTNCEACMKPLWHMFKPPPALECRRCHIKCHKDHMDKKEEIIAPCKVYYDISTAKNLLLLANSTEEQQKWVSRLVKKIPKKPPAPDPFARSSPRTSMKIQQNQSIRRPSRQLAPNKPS
Assay: ROCK2 kinase inhibition assay (LABCHIP 3000 Reader, FITC peptide substrate);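 note: rho kinase reaction read by separating phosphorylated from unphosphorylated peptide on chip, with inhibition of kinase activity computed per concentration across a dose-response series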
pIC50: −log10 of the molar value.
Let's look at some compounds and their measured pIC50.

Consider the reported pIC50 for these compounds:
compound | result
C[C@H](O)COc1ccc2c(C(=O)N[C@H]3CC4(C3)C[C@H](Oc3ncccc3C(N)=O)C4)cnn2c1 (stereo partly shown) [Example 333] | 7.30 to 8.30
CC(C)(O)COc1ccc2c(C(=O)NC3CC4(C3)CC(Oc3cc(-c5cccc(O)c5)ccc3C(N)=O)C4)cnn2c1 (stereo not shown) [Example 240] | 7.30 to 8.30
Cn1c(C(=O)N[C@H]2CC3(C2)C[C@H](Oc2ncccc2C(N)=O)C3)cc2ccccc21 (stereo partly shown) [Example 70] | 6.60 to 7.30
COCCOC(=O)Nc1ccc(-c2ccc(C(N)=O)c(OC3CC4(CC(NC(=O)c5cnn6cc(OCC(C)(C)O)ccc56)C4)C3)c2)cn1 (stereo not shown) [Example 233] | 7.30 to 8.30
CN1CCc2nc(-c3cc(C#N)cc(C(=O)N[C@H]4CC5(C4)C[C@H](Oc4ncccc4C(N)=O)C5)c3)sc2C1 (stereo partly shown) [Example 200] | 7.30 to 8.30
CC(C)Cn1cc(-c2cc(C#N)cc(C(=O)N[C@H]3CC4(C3)C[C@H](Oc3ncccc3C(N)=O)C4)c2)cn1 (stereo partly shown) [Example 187] | > 8.30

Would you kindly look at the next entry?
Query: What does the record list as pIC50 for Cc1nn(-c2cccc(-c3ccc(C(N)=O)c(OC4CC5(CC(NC(=O)c6cnn7cc(OCC(C)(C)O)ccc67)C5)C4)c3)c2)c(N)c1C#N (stereo not shown) [Example 246] ?
Reply: 7.30 to 8.30
